target: T1, full length recombinant human 2N4R tau (human, UniProt P10636 1-758); experiment: SPR SCK, IgG on Protein A, tau in flow
T1 construct: bought from rPeptide; pHrodo Red maleimide-labelled where it stands in uptake assays; also called tau1-441; full length tau
T1 sequence (P10636 other isoform, or with tags, fused parts or gaps limits assumed): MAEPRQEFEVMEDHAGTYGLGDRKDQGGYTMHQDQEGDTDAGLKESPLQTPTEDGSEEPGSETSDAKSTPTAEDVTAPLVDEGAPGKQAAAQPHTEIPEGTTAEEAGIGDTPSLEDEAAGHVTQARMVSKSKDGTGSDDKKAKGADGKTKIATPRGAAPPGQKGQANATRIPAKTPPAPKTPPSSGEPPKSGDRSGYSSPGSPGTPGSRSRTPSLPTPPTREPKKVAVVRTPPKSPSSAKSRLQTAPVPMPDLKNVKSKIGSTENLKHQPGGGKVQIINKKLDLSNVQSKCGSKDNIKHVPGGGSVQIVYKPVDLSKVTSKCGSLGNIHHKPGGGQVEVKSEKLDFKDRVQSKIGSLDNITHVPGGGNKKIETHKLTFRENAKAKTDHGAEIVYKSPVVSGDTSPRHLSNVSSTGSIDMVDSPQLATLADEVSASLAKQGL
We begin with a simple list: items and their reported koff.
Record the value in s⁻¹, omitting the unit from your answer.

Please report the recorded koff for #44 VH1VK3 humanised hIgG1 (antibody, V domains shown, also called VH1Vκ3) VH: QSVQESGGGLVKPSETLSLTCTVSGIDLSSYAMAWVRQAPGKGLEWIGCIDRRGGTFYASWVKGRFTISKTSTTVDLKMTSLTAEDTATYFCARDSGAFDPWGQGTLVTVSS VL: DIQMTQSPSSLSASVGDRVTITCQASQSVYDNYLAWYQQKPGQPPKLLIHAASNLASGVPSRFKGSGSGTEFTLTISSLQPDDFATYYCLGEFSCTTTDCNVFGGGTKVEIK .
0.0129

Please report the recorded koff for #44 VH2VK2 humanised hIgG1 (antibody, V domains shown, also called VH2Vκ2) VH: QSVQESGPGLVKPSETLSLTCTVSGIDLSSYAMAWVRQAPGKGLEWIGCIDRRGGTFYASWVKGRFTISKTSTTVDLQMTSLTAEDTATYFCARDSGAFDPWGQGTLVTVSS VL: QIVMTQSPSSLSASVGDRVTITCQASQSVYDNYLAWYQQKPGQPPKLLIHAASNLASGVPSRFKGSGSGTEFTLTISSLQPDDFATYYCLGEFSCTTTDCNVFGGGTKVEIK .
0.0182

Please report the recorded koff for #44 VH1VK2 humanised hIgG1 (antibody, V domains shown, also called VH1Vκ2) VH: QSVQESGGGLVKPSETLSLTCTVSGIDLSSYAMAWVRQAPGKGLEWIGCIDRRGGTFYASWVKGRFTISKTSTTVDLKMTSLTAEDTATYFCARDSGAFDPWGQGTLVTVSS VL: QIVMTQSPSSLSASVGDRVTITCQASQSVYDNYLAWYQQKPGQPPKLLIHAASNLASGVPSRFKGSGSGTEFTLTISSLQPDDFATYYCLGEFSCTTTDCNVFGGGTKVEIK .
0.0232

Please report the recorded koff for #44 VH5VK4 humanised hIgG1 (antibody, V domains shown, also called VH5Vκ4) VH: QVQLQESGPGLVKPSETLSLTCTVSGIDLSSYAMAWVRQAPGKGLEWIGCIDRRGGTFYASWVKGRFTISRDNSKNTLDLQMTSLTAEDTATYYCARDSGAFDPWGQGTLVTVSS VL: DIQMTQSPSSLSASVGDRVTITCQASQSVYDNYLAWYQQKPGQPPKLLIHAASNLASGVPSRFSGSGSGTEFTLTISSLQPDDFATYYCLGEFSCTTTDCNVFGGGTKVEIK .
0.0684

Hey, just so you know, these numbers are from patent US20250270301A1.
